PROTOCOL_DESCRIPTION: AUC (0 to t) in C57BL/6J mouse at 10 mg/kg, po by LC-MS/MS analysis
Format: ADME, organism-based
Design: dose 10 mg/kg, route oral
SETTINGS: plasma
ATTRIBUTE_MEASURED: AUC(0-t) (µM·h)
One number for each entry, in µM·h.

COc1ccccc1OC[C@H](O)CO	0.737

Prompt: Need AUC(0-t), item COc1ccccc1OCC(O)CO (racemic) [GUAIFENESIN]
Completion: 2.73

----------
PROTOCOL_DESCRIPTION: Tmax in streptozotocin-induced C57BL/6J mouse diabetic neuropathy model at 10 mg/kg, po by LC-MS/MS analysis
Assay type: ADME, organism-based
Parameters: dose 10 mg/kg, route oral
SETTINGS: in vivo
Please go through the items and note down their Tmax.
Give bare numbers, in min.

COc1ccccc1OC[C@H](O)CO	10

Prompt: Returns the measured Tmax for the input compound. Input: COc1ccccc1OCC(O)CO (racemic)
Completion: 4.98
